All figures here come from the RNAGym collection of RNA variant scans (doi:10.1038/nmeth.2970).

B1: NELF-E aptamer (parent)
chain: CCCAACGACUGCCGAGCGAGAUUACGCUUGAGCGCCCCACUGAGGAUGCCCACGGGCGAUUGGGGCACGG

variants of: B1; test: HiTS-RAP; settings: with NELF-E (Drosophila)
pKd: −log10 of the molar value.

>  <sequenceChain>
CCCAACGUCUGCCGAGCUAGAUUACGCUUGAGCGCCCCACUGAGGAUGCCCACGGGCGAUUGGGGCACGG

>  <pKd>
8.23

$$$$
>  <sequenceChain>
CCCAACGACUGCGGUGCGAGAUUACGCUUGAGCGCCCCACUGAGGAUGCCCACGGGCGAUUGGGGCACGG

>  <pKd>
8.21

$$$$
>  <sequenceChain>
CCCAACUACUGCCGAGCGAGAUGACGCUUGAGCGCCCCACUGAGGAUGCCCACGGGCGAUUGGGGCACGG

>  <pKd>
8.22

$$$$
>  <sequenceChain>
CCCAACGAGUGCCGAGCGAGAUUACGCUUGAGCACCCCACUGAGGAUGCCCACGGGCGAUUGGGGCACGG

>  <pKd>
8.04

$$$$
>  <sequenceChain>
CCCAACGACUGCCGAGCGAGAUUGCGCUUGAGCGCCCCACUGAGGAUGCCUACGGGCGAUUGGGGCACGG

>  <pKd>
8.05

$$$$
>  <sequenceChain>
CCCAACGACUGCCUAGCGAGAUUACGCUUGAGCACCCCACUGAGGAUGCCCACGGGCGAUUGGGGCACGG

>  <pKd>
8.21

$$$$
>  <sequenceChain>
CCCGACGACUGCCGAGCGAGAAUACGCUUGAGCGCCCCACUGAGGAUGCCCACGGGCGAUUGGGGCACGG

>  <pKd>
8.21

$$$$
>  <sequenceChain>
CCCAACGACUGCCGAGCGAGAUUACGCUUGAGCGCCCCACUGAGGCUGCCCACGGGCGAUUGGGGCACGG

>  <pKd>
8.00

$$$$
>  <sequenceChain>
CCCAACGACUGGCGAGCGAGAUUACGCUUGAGCGCCCCACUGAGGAUGCCCACGGGCGAUAGGGGCACGG

>  <pKd>
7.41

$$$$
>  <sequenceChain>
CCCAACGACUGCCUAGCGAGAUUGCGCUUGAGCGCCCCACUGAGGAUGCCCACGGGCGAUUGGGGCACGG

>  <pKd>
8.19

$$$$
>  <sequenceChain>
CCCAACGACGGCCGAGCGAGAUUACGCUUGAGCCCCCCACUGAGGAUGCCCACGGGCGAUUGGGGCACGG

>  <pKd>
7.88

$$$$
>  <sequenceChain>
CCCGACGACUGCCGAGCGGGAUUACGCUUGAGCGCCCCACUGAGGAUGCCCACGGGCGAUUGGGGCACGG

>  <pKd>
8.25

$$$$
>  <sequenceChain>
CCCAACGACUGCCUAGCGAGAUUACGCUUGAGCGCCCCAGUGAGGAUGCCCACGGGCGAUUGGGGCACGG

>  <pKd>
8.00

$$$$
>  <sequenceChain>
CCCAACGAUUGCCGAGCGAGAUUACGCUUGAGCGCCCCACGGAGGAUGCCCACGGGCGAUUGGGGCACGG

>  <pKd>
8.22

$$$$
>  <sequenceChain>
CCCAACGACUGCCGAGCGAGAUUACGCUUGAGCGCCCCACUGAGGAUGCCCUCGGGCGAUAGGGGCACGG

>  <pKd>
7.04

$$$$
>  <sequenceChain>
CCCAACGACUGGCGAGCGAGAUUACGCUUGAGCGCCCCUCUGAGGAUGCCCACGGGCGAUUGGGGCACGG

>  <pKd>
7.60

$$$$
>  <sequenceChain>
CCCAACGACUACCGAGCGAGAUUACGCUUGAGCGCCCCACGGAGGAUGCCCACGGGCGAUUGGGGCACGG

>  <pKd>
8.21

$$$$
>  <sequenceChain>
CCCAGCGACUGCCGAGCGAGAUUACGCUUGAGCGCCCCACUGAGGAUGCCCACAGGCGAUUGGGGCACGG

>  <pKd>
7.89

$$$$
>  <sequenceChain>
CCCAACGAGUGCCGAGCGAGAUUACGCUUGAGCGCCCCACUGAGGAUGCCCACGGGCGAUUGGGACACGG

>  <pKd>
8.32

$$$$
>  <sequenceChain>
CCCAGCGUCUGCCGAGCGAGAUUACGCUUGAGCGCCCCACUGAGGAUGCCCACGGGCGAUUGGGGCACGG

>  <pKd>
8.20

$$$$
>  <sequenceChain>
CCCAACGACUGCCUAGCGAGAUUACGCUUGAGCGCCCCACUGUGGAUGCCCACGGGCGAUUGGGGCACGG

>  <pKd>
7.07

$$$$
>  <sequenceChain>
CCCAACGGCUGCCGAGCGAGAUUACGCUUGAGCGCCCCACUGAGGAUGCCCACGGGCUAUUGGGGCACGG

>  <pKd>
7.70

$$$$
>  <sequenceChain>
CCCAACGACUGCCGAGCGAGAUUACGCUUGAGCGCCCCUCUGAGGAUGCCCACAGGCGAUUGGGGCACGG

>  <pKd>
7.41

$$$$
>  <sequenceChain>
CCCAAGGACUGCCGAGCGAGAUUACGCGUGAGCGCCCCACUGAGGAUGCCCACGGGCGAUUGGGGCACGG

>  <pKd>
8.18

$$$$
>  <sequenceChain>
CCCAACGACUGCCGAGCGAGAUUACGCUUGAGCGCCCCACGGAGUAUGCCCACGGGCGAUUGGGGCACGG

>  <pKd>
8.29

$$$$
>  <sequenceChain>
CCCGACGACUGCCGAGCGAGAUUACGUUUGAGCGCCCCACUGAGGAUGCCCACGGGCGAUUGGGGCACGG

>  <pKd>
8.35

$$$$
>  <sequenceChain>
CCCGACGACUGCCGAGCAAGAUUACGCUUGAGCGCCCCACUGAGGAUGCCCACGGGCGAUUGGGGCACGG

>  <pKd>
8.27

$$$$
>  <sequenceChain>
CCCAACGACUGCCGAGCGAGAUUACGCUUGAGCGCCCCACGUAGGAUGCCCACGGGCGAUUGGGGCACGG

>  <pKd>
8.29

$$$$
>  <sequenceChain>
CCCAACGACUGCCGAGCGAGACUACGCUUGAGCGCCCCACGGAGGAUGCCCACGGGCGAUUGGGGCACGG

>  <pKd>
8.26

$$$$
>  <sequenceChain>
CCCAACGAGUGCCGAGCGAGAUUACACUUGAGCGCCCCACUGAGGAUGCCCACGGGCGAUUGGGGCACGG

>  <pKd>
8.27

$$$$
>  <sequenceChain>
CCCAACGACUGCCGAUCAAGAUUACGCUUGAGCGCCCCACUGAGGAUGCCCACGGGCGAUUGGGGCACGG

>  <pKd>
8.14

$$$$
>  <sequenceChain>
CCCAACGACUGCCGAGCGAGAUUACGCUUGAGCGCCCCACGGAGGAUGCCCACGGGCGAUUAGGGCACGG

>  <pKd>
7.70

$$$$
>  <sequenceChain>
CCCAACGAUUGCCGAGCGAGAUUGCGCUUGAGCGCCCCACUGAGGAUGCCCACGGGCGAUUGGGGCACGG

>  <pKd>
8.25

$$$$
>  <sequenceChain>
CCCAACGACUGCCGAGCGAGAUUACGCUGGAGCGCCCCACUGAGGAUGCCCACGGUCGAUUGGGGCACGG

>  <pKd>
8.26

$$$$
>  <sequenceChain>
CCCAACGACGGCCGAGCGAGAUUACGCUUGAGCGCCCCGCUGAGGAUGCCCACGGGCGAUUGGGGCACGG

>  <pKd>
8.00

$$$$
>  <sequenceChain>
CCCAGCGACUGCCGAGCGAGAUUACGCCUGAGCGCCCCACUGAGGAUGCCCACGGGCGAUUGGGGCACGG

>  <pKd>
7.99

$$$$
>  <sequenceChain>
CCCAACGACUGCCGAGCGGGAUUACGCUAGAGCGCCCCACUGAGGAUGCCCACGGGCGAUUGGGGCACGG

>  <pKd>
8.40

$$$$
>  <sequenceChain>
CCCAACUACUGCCGAGCGAGAUUACGCUUGAGCGCCCCACUGAGGAUGCCCACGGGCGGUUGGGGCACGG

>  <pKd>
7.17

$$$$
>  <sequenceChain>
CCCAACGACUGCCGAGCGAGAUUACGCUGGAGCGCCCCACUGAGGAUGCCUACGGGCGAUUGGGGCACGG

>  <pKd>
8.09

$$$$
>  <sequenceChain>
CCCAACGACUUCCGAGCGAGAUUACGCUUGAGCGCCCCACUGGGGAUGCCCACGGGCGAUUGGGGCACGG

>  <pKd>
7.34

$$$$
>  <sequenceChain>
CCCAACGACCGCCGAGCGAGAUGACGCUUGAGCGCCCCACUGAGGAUGCCCACGGGCGAUUGGGGCACGG

>  <pKd>
8.29

$$$$
>  <sequenceChain>
CCCAAAGACUGCCGAGCGAGAUUGCGCUUGAGCGCCCCACUGAGGAUGCCCACGGGCGAUUGGGGCACGG

>  <pKd>
8.13

$$$$
>  <sequenceChain>
CCCAACGACUGGCGAGCGAGAUUACGCUUGAGCGCCCCACUGAGGAGGCCCACGGGCGAUUGGGGCACGG

>  <pKd>
8.09

$$$$
>  <sequenceChain>
CCCAACGACUGCCGAGGGAGAUUACGCCUGAGCGCCCCACUGAGGAUGCCCACGGGCGAUUGGGGCACGG

>  <pKd>
8.06

$$$$
>  <sequenceChain>
CCCAACGACGGCCGAGCGAGAUUACGCUUGAGCGCCCCACUGAGGAUGCCCACGGCCGAUUGGGGCACGG

>  <pKd>
7.57

$$$$
>  <sequenceChain>
CCCAUCGACUGCCGAGCGAGAUUACGCUUGAGCGCCCCACUGAGGAUGCCCACGGGCGGUUGGGGCACGG

>  <pKd>
7.09

$$$$
>  <sequenceChain>
CCCAACGACUGCCGAGCGAGAUUACGCUUGAGCGCCCCACUGAGGAUGACCACGGGCGAUUGGGGCACGG

>  <pKd>
7.69

$$$$
>  <sequenceChain>
CCCAUCGACUGCCGAGCGAGAUUACGCUUGAGCGCCCCACUGAGGAUGCCCACGGUCGAUUGGGGCACGG

>  <pKd>
8.19

$$$$
>  <sequenceChain>
CCCAACGACUGCCGAGCGAGUGUACGCUUGAGCGCCCCACUGAGGAUGCCCACGGGCGAUUGGGGCACGG

>  <pKd>
8.28

$$$$
>  <sequenceChain>
CCCAUCGACUGCCGAGCGAGAUUACGCUGGAGCGCCCCACUGAGGAUGCCCACGGGCGAUUGGGGCACGG

>  <pKd>
8.23

$$$$
>  <sequenceChain>
CCCAACGACUGCCUAGCGAGAUUACGCUUGAGCGCCCCACUGAGGAUGCCCACGGGCGAUUGGGGCUCGG

>  <pKd>
8.21

$$$$
>  <sequenceChain>
CCCAACGACGGCCGAGCGAGAUUACGCGUGAGCGCCCCACUGAGGAUGCCCACGGGCGAUUGGGGCACGG

>  <pKd>
8.19

$$$$
>  <sequenceChain>
CCCAACGACUACCUAGCGAGAUUACGCUUGAGCGCCCCACUGAGGAUGCCCACGGGCGAUUGGGGCACGG

>  <pKd>
8.19

$$$$
>  <sequenceChain>
CCCAACGACUGCCGAGCGAGAUGACGCCUGAGCGCCCCACUGAGGAUGCCCACGGGCGAUUGGGGCACGG

>  <pKd>
8.05

$$$$
>  <sequenceChain>
CCCGACGACUGCCGAGCGAGAUUACGCUUGAGCGCCCCAUUGAGGAUGCCCACGGGCGAUUGGGGCACGG

>  <pKd>
7.19

$$$$
>  <sequenceChain>
CCCAACGACUGCCGAGCGAGAUUACGCUUGAGCGCCCCACUGAGGAUGCCCUCGGGCGAUUGUGGCACGG

>  <pKd>
7.37

$$$$
>  <sequenceChain>
CCCAACGACUGGCGAGCGAGGUUACGCUUGAGCGCCCCACUGAGGAUGCCCACGGGCGAUUGGGGCACGG

>  <pKd>
8.15

$$$$
>  <sequenceChain>
CCCAACGACUGCCGAGGGUGAUUACGCUUGAGCGCCCCACUGAGGAUGCCCACGGGCGAUUGGGGCACGG

>  <pKd>
8.14

$$$$
>  <sequenceChain>
CCCAACGACUGGCGAGCGAGAUUACGCUUGAGCGCCUCACUGAGGAUGCCCACGGGCGAUUGGGGCACGG

>  <pKd>
7.78

$$$$
>  <sequenceChain>
CCCAAGGACUGCCGAGCGAGAUUACGCUUGAGCGCCCCACUGAGGAUGCCCACGGGCGAUUGAGGCACGG

>  <pKd>
7.70

$$$$
>  <sequenceChain>
CCCAGCGACUGCCGAGCGAGGUUACGCUUGAGCGCCCCACUGAGGAUGCCCACGGGCGAUUGGGGCACGG

>  <pKd>
8.25

$$$$
>  <sequenceChain>
CCCAACGACUGCCGAUCGAGAUUACGCUUGAGCGCCCCGCUGAGGAUGCCCACGGGCGAUUGGGGCACGG

>  <pKd>
8.07

$$$$
>  <sequenceChain>
CCCAACGACUGCCGAGCGAGAUUACGCUUGAGCGCCCCACUGAGGAUGCGCACGGGCGAUUGGGGCACGG

>  <pKd>
8.20

$$$$
>  <sequenceChain>
CCCCACGACUGCCGAGCGAGAUUACGCUUGAGCGCCCCACGGAGGAUGCCCACGGGCGAUUGGGGCACGG

>  <pKd>
8.05

$$$$
>  <sequenceChain>
CCCAGCGACUGCCGAGCGAGAUUACGCUUGAGCGCCCCACUGAGUAUGCCCACGGGCGAUUGGGGCACGG

>  <pKd>
8.14

$$$$
>  <sequenceChain>
CCCAAGGACUGCCGAGCGAGAUUACGCUUGAGCGCCCAACUGAGGAUGCCCACGGGCGAUUGGGGCACGG

>  <pKd>
7.35

$$$$
>  <sequenceChain>
CCCAACGUCUGCCGAGCGAGUUUACGCUUGAGCGCCCCACUGAGGAUGCCCACGGGCGAUUGGGGCACGG

>  <pKd>
8.13

$$$$
